test: Flow cytometry cell viability assay with propidium iodide in the DM1 cell model; details: human, HeLa cells, DM1 cell model (transfected)

smiles: N=C(N)c1ccc(OCCCCCCCOc2ccc(C(=N)N)cc2)cc1
IC50 at 18 h, µM: 15
